target: MSI1 full-length (mouse, UniProt Q61474 1-362); experiment: nsRBNS (natural sequence RNA bind-n-seq); RBNS binding buffer (assumed for nsRBNS): 25 mM Tris pH 7.5, 150 mM KCl, 3 mM MgCl2, 0.01% Triton X-100, 500 ug/ml BSA, 20 U/ml SUPERase-In, 4 C; UNK is unkempt and MSI1 is Musashi-1; names of the RNAs are library labels; protein concentration not given here; high values mean tight binding
Sequence (Q61474 whole entry): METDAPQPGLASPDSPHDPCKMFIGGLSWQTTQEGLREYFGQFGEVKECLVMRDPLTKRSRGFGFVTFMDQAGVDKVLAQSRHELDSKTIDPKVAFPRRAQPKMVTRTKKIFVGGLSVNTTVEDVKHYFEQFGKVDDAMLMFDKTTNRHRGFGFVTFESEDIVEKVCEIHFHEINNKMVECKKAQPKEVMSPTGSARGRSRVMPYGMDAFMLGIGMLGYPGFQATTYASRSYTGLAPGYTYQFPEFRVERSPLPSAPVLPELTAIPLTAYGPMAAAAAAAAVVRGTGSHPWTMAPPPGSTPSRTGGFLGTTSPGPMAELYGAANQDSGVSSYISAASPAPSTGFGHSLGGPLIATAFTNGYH
Whole data set: some 5,800 sequences, median “enrichment r” near 0.54, cut for the highest 2% near 16. The full list was thinned out, with the highest values kept by preference.
Mark each entry YES if its binding signal sits below 3 enrichment R, and NO for all others.

binder	class.label
chr11:69651696:69651723:+|3pUTR|ENSG00000110092|msi1_unk|total|mutant (ssRNA) RNA: GGGAGUUCUACAGUCCGACGAUCGAGGAUCCGGUUCCAUCCUUUACGUGUUUAAAAAAAAGCAUAAAAACAUUUUAAAAACACCGAAAAAUUCAGCAAACCAUUUUUAAAGCCGAAGAGGGUUUCCGGCCGAAAAACAUAUUCCAACAGAGGAUUGAGCAUCA	YES
chr11:69651696:69651723:+|3pUTR|ENSG00000110092|msi1_unk|FALSE|overlapping (ssRNA) RNA: GGGAGUUCUACAGUCCGACGAUCGAGGAUUAGGUUCCAUCCUUUACGUGUUUAAAAAAAAGCAUAAAAACAUUUUAAAAACAUAGAAAAAUUCAGCAAACCAUUUUUAAAGUAGAAGAGGGUUUUAGGUAGAAAAACAUAUUCCAACAGAGGAUUGAGCAUCA	NO
chr20:13714314:13714426:-|3pUTR|ENSG00000089048|unk|FALSE|unique (ssRNA) RNA: GGGAGUUCUACAGUCCGACGAUCUUUUUCUAGCCAUAAAGGAUGGAAGUCAAGAACUUUUUGUUGUUUAGUCAUGUUAAGUAUAGUUUAUGAAAUUAACUUGUAAAUAAAAGUGUAAAAUAUUUUCAUUAUUUUGUAUAGCACCAACAGAGGAUUGAGCAUCA	NO
chr10:121957106:121957207:-|3pUTR|ENSG00000107672|msi1|FALSE|bound_elsewhere (ssRNA) RNA: GGGAGUUCUACAGUCCGACGAUCUGUAUCGUACAUAUUGUAUGAUUCAACAUUUUUAAAGGCAGAUUGUUUUUAGUAAAAUGUAGCUUUUGAUAGUUAAUAAAUUUGUCAUGGUUGUCUUUGAUUAAAGGAAACUCACCGCCACAACAGAGGAUUGAGCAUCA	NO
chr2:206311781:206311882:+|3pUTR|ENSG00000204186|unk|total|mutant (ssRNA) RNA: GGGAGUUCUACAGUCCGACGAUCCCGUGUUCCGAGUCCUUUCAUUUUAAGAUUCAGAAACAGCCUUUGUCCAACAUUUUCUGCCGAAGAACUUCAUCUUAAUUUAUGUCACAAAAUAAUUCCGCACCGUAUACCGAAUUUUGUCAACAGAGGAUUGAGCAUCA	YES
chr10:121957106:121957207:-|3pUTR|ENSG00000107672|msi1|total|mutant (ssRNA) RNA: GGGAGUUCUACAGUCCGACGAUCUGUAUCGUACAUAUUGUAUGAUUCAACAUUUUUAAAGGCAGAUUGUUUUCCGUAAAAUGCCGCUUUUGACCGUUAAUAAAUUUGUCAUGGUUGUCUUUGAUUAAAGGAAACUCACCGCCACAACAGAGGAUUGAGCAUCA	YES
